// each record: one item and its Kd for Mtb UgpB (Mycobacterium tuberculosis)
Reported property: Kd

| Compound | Reported property | Result |
| --- | --- | --- |
| O=P(O)(OC[C@H](O)CO)O[C@@H]1[C@H](O)[C@H](O)[C@@H](O)[C@H](O)[C@H]1O [GPI, glycerophosphoinositol] | Kd | 1050 µM |
| O=P(O)(O)O[C@H]1[C@H](O)[C@@H](O)[C@H](OP(=O)(O)OC[C@H](O)CO)[C@H](O)[C@@H]1O [GPI4P, glycerophosphoinositol-4-phosphate] | Kd | 290 µM |
